src = patent US6534522B2

Counter-ions that a name gives are not always drawn.

>  <Compound>
Br.COc1ccc(CCN2CCCC(Cc3ccccc3)C2)cc1 (centres unmarked)

>  <melting point>
74 to 78 °C

$$$$
>  <Compound>
Br.c1ccc(CCCCN2CCCC(Cc3ccccc3)C2)cc1 (centres unmarked)

>  <melting point>
105 to 107 °C

$$$$
>  <Compound>
OCC(O)CN1CCC(Cc2ccccc2)CC1 (centres unmarked) [Ex. 85]

>  <melting point>
92 to 94 °C

$$$$
>  <Compound>
Cl.O=C(c1ccc(F)cc1)C1CCN(CCOc2ccc(F)cc2)CC1

>  <melting point>
138 to 141 °C

$$$$
>  <Compound>
Cl.Oc1ccc(OCCN2CCC(C[C@]34C[C@H]5C[C@H](C[C@H](C5)C3)C4)CC2)cc1 [Ex. 107]

>  <melting point>
178 to 179 °C

$$$$
>  <Compound>
CC(O)CCN1CCC(Cc2ccc(Cl)cc2)CC1.Cl (centres unmarked) [Ex. 99]

>  <melting point>
96 to 101 °C

$$$$
>  <Compound>
O=C(c1ccc(F)cc1)C1CCN(CCCO)CC1 [Example 77]

>  <melting point>
106 to 108 °C

$$$$
>  <Compound>
Br.Fc1ccc(OCCNN2CCC(Cc3ccc(Cl)cc3)CC2)cc1 [Ex. 106]

>  <melting point>
214 to 215 °C (dec.)

$$$$
>  <Compound>
O=c1[nH]c2ccc(OCCCN3CCc4ccccc4C3)cc2[nH]1 (as salt: hydrochloride) [Ex. 108]

>  <melting point>
210 to 215 °C (dec.)

$$$$
>  <Compound>
OCCCN1CCC(Cc2ccccc2)CC1 (as salt: hydrobromid) [Ex. 83, hydrobromide]

>  <melting point>
122 to 124 °C

$$$$
>  <Compound>
Oc1ccc(CCNC2=NCC(Cc3ccccc3)CN2)cc1 (centres unmarked) [Ex. 103]

>  <melting point>
153 to 155 °C

$$$$
>  <Compound>
O=C(c1ccccc1)C1CCN(CCOc2ccccc2)CC1 (as salt: hydrochloride) [Ex. 27, 4-Benzoyl-1-(2-phenoxyethyl)piperidine]

>  <melting point>
161 to 162 °C

$$$$
>  <Compound>
c1ccc(OCCCN2CCc3c([nH]c4ccccc34)C2)cc1 [Ex. 25]

>  <melting point>
123 to 124 °C

$$$$
>  <Compound>
COc1ccc(CC2CCN(CCCO)CC2)cc1 (as salt: hydrobromid) [Ex. 93, hydrobromide]

>  <melting point>
129 to 131 °C

$$$$
>  <Compound>
CC(O)CCN1CCC(Cc2ccccc2)CC1.Cl (centres unmarked) [Ex. 100]

>  <melting point>
133 to 135 °C

$$$$
>  <Compound>
Br.c1ccc(CC2CCCN(CCCOc3ccccc3)C2)cc1 (centres unmarked)

>  <melting point>
148 to 149 °C

$$$$
>  <Compound>
OCCCN1CCC(Cc2ccc(Cl)cc2)CC1 (as salt: hydrobromid) [Ex. 89, hydrobromide]

>  <melting point>
139.5 to 140 °C

$$$$
